experimentSummary: human hepatoma cell viability loss – ATP luminescence, cytotoxicity control for P. falciparum antimalarial project, primary screen (AID 2303);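 note: 0% = DMSO wells and 100% = digitonin-killed cells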
conditionNotes: HepG2 viability, 24-48 h, at 10 µM, hits give high values
propertyLabel: inhibition (%)

compound: O=C(Nc1cccc(-c2ccc(-c3nc4ccccc4[nH]3)cc2)c1)Nc1ccc2c(c1)OCO2
quantitativeReadout: 20
//
compound: Cc1[nH]c(-c2ccc(F)cc2)cc1C(=O)NC1CCN(Cc2ccccc2)CC1
quantitativeReadout: 6
//
compound: COc1ccc(C(C)Nc2nc(N)c3cc(OC)c(OC)cc3n2)cc1 (centres undefined)
quantitativeReadout: 23
//
compound: NC(N)=Nc1nc(-c2cccc(NC(=O)NCC(c3ccccc3)c3ccccc3)c2)cs1
quantitativeReadout: -3
//
compound: Cn1nc(-c2ccc(CNC3CCc4ccccc43)cc2)c2cnc(NCCCN3CCCC3)nc21 (centres undefined)
quantitativeReadout: 27
//
compound: Cc1cc(N[C@@H](Cc2ccccc2)C(=O)NCc2cccs2)nc(NCCc2ccccc2)n1
quantitativeReadout: 6
//
compound: N#Cc1ccc2c(c1)CCN(CCC1CCC(NC(=O)c3cc4ccc(Br)cc4[nH]3)CC1)C2 (centres undefined)
quantitativeReadout: 12
//
compound: CN(C)Cc1ccc2cc(NC(=O)c3ccc(-c4ccc(Cl)cc4)cc3)ccc2c1
quantitativeReadout: 21
//
compound: CCCCNc1nccc2ccc(-c3ccncc3)cc12
quantitativeReadout: 6
//
compound: Cc1noc(C)c1-c1cccc(CNCc2ccc(-c3ccc(-c4nc5ccc(C(F)(F)F)cc5[nH]4)s3)cc2)c1
quantitativeReadout: 54
//
compound: CC(Nc1ccc2c(c1)CCC2)C(=O)Nc1cc(C(F)(F)F)ccc1N1CCOCC1 (centres undefined)
quantitativeReadout: -3
//
compound: O=C(NC1CCN(Cc2ccc(O)cc2)CC1)c1ccc(Cl)c(Cl)c1
quantitativeReadout: 1
//
compound: O=C(Nc1cccc(CN2CCCN(Cc3ccc(O)cc3)CC2)c1)c1cccc(F)c1
quantitativeReadout: 22
//
compound: CCCNC(=O)c1cncc(-c2ccc(CNC3Cc4ccccc4C3)cc2)c1
quantitativeReadout: 9
//
compound: CCCCCn1c(Sc2ccc(C#N)c([N+](=O)[O-])c2)nnc1-c1cccc(Cl)c1
quantitativeReadout: 4
//
compound: Cc1cccc2[nH]c(-c3ccc(-c4ccc(NC(=O)Nc5ccc(F)c(F)c5F)cc4)s3)nc12
quantitativeReadout: 58
//
compound: Cc1cccc(Cl)c1Nc1nnc(-c2cccc(C(=O)NC[C@@H]3CC[C@H]4C[C@@H]3C4(C)C)c2)o1
quantitativeReadout: 2
//
compound: CCN(CC)Cc1ccc2c(=O)cc(CCc3cccc(F)c3F)n(CC(=O)N(Cc3ccc(-c4ccc(C(F)(F)F)cc4)cc3)C(C)C)c2c1
quantitativeReadout: 82
//
compound: O=C(NCc1ccc(Cl)c(Cl)c1)c1ccc(-c2nc3ccc(F)cc3[nH]2)cc1
quantitativeReadout: 0
